Hello, the source for this data is PubChem BioAssay, in case you need it.

Experiment: viability rescue of complex I mutant cybrids, primary screen, cell-based, galactose medium, ATP luminescence (AID 1645843);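 further: positive z means more ATP and so rescue of galactose-driven cybrid death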
Particulars: complex I mutant cybrid cells, 72 h, stronger effect = higher value
Measured z-score, listed per entry for reference.
Returns: the value as a bare number; no unit string appended.

CC(=O)O[C@H]1C(=O)[C@@]2(C)C([C@H](OC(=O)c3ccccc3)[C@]3(O)C[C@H](OC(=O)[C@H](O)[C@@H](NC(=O)c4ccccc4)c4ccccc4)C(C)=C1C3(C)C)[C@]1(OC(C)=O)CO[C@@H]1C[C@@H]2O (some centres undefined)
0.865
COc1cc(/C=C(\C#N)C(N)=O)cc(CSc2nc3ccccc3s2)c1O
5.03
C[C@H](NC(=O)c1sccc1OCc1ccc(Cl)cc1)c1ccccc1
-1.04
C#C[C@]1(O)CC[C@H]2[C@@H]3CCC4=Cc5oncc5CC4(C)[C@H]3CCC21C (some centres undefined)
-0.725
COc1ccc2c(c1)c(CC(=O)N1CCOCC1)c(C)n2C(=O)c1ccc(Cl)cc1
-0.295
CC1c2cccc(O)c2C(O)=C2C(=O)[C@]3(O)C(O)=C(C(N)=O)C(=O)[C@@H](N(C)C)[C@@H]3C[C@@H]21 (some centres undefined)
-0.345
CNC(=O)Oc1ccc2c(c1)[C@]1(C)CCN(C)C1N2C (some centres undefined)
-1.49
CN(Cc1cnc2nc(N)nc(N)c2n1)c1ccc(C(=O)NC(CCC(=O)O)C(=O)O)cc1 (centres undefined)
-1.2

Field: next molecule
Look up z-score for this molecule: `CC(N)=NCc1cccc(CN)c1`
0

* * *

Listed here: items and their measured fluorescence ratio.
Experiment: fluorescence interference in NS3h assay format, artefact control for HCV NS3 helicase inhibitor project, biochemical, NIH Clinical Collection (AID 743272);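 further: HCV NS3 helicase with a Cy5 labelled single stranded DNA probe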
Particulars: fluorescence interference counterscreen, stronger effect = lower value
Active and inactive are the calls of the source. How the calls were made is not given here.

C=C1/C(=C\C=C2/CCC[C@]3(C)[C@@H]([C@H](C)/C=C/[C@@H](O)C4CC4)CC[C@@H]23)C[C@@H](O)C[C@@H]1O
0.97 (inactive)
C=CCc1ccc(O)c(-c2ccc(O)c(CC=C)c2)c1
0.94 (inactive)
CC1CC2C3CCC4=CC(=O)C=CC4(C)[C@@]3(Cl)C(O)CC2(C)C1(O)C(=O)CO (stereo partly specified)
0.95 (inactive)
CO[C@H]1C=CO[C@@]2(C)Oc3c(C)c(O)c4c(O)c(c5c(nc6cc(C)ccn65)c4c3C2=O)NC(=O)C(C)=CC=C[C@H](C)[C@H](O)[C@@H](C)[C@@H](O)[C@@H](C)[C@H](OC(C)=O)[C@@H]1C
1.01 (inactive)

Find the recorded fluorescence ratio belonging to `CS(=O)(=O)c1ccc(-c2cc(Br)sc2-c2ccc(F)cc2)cc1` and report it.
0.95 (inactive)

What fluorescence ratio value was documented for this compound, `C[C@@H](c1ncncc1F)[C@](O)(Cn1cncn1)c1ccc(F)cc1F` ?
1.02 (inactive)

Which fluorescence ratio reading was recorded for the compound `Cc1cccc(CCN2CCC(C(=O)c3ccc(NS(C)(=O)=O)cc3)CC2)n1` ?
0.95 (inactive)

What does the record list as fluorescence ratio for `CN(C)CCOc1ccc(/C(=C(/CCCl)c2ccccc2)c2ccccc2)cc1` ?
0.82 (inactive)

Can you share its fluorescence ratio? I mean this compound: CC(=O)C1(O)CCC2C3CC(C)C4=CC(=O)C=CC4(C)C3(F)C(O)CC21C (stereo unspecified)
1 (inactive)

Quick one: fluorescence ratio for CN(CCO)CC(O)Cn1cnc2c1c(=O)n(C)c(=O)n2C (stereo unspecified) (tested in a mixture with another compound) ?
0.94 (inactive)

Sample COc1cccc2c1C(=O)c1c(O)c3c(c(O)c1C2=O)C[C@@](O)(C(C)=O)C[C@@H]3OC1CC(N)C(O)C(C)O1 (stereo partly specified) — what was its fluorescence ratio?
0.55 (active)

Returns the measured fluorescence ratio for the input compound. Input: `O=C1N[C@H](C(=O)O)CS1`
0.96 (inactive)

Could you share which fluorescence ratio value was measured for `COc1cccc2c1C(=O)c1c(O)c3c(c(O)c1C2=O)C[C@@](O)(C(=O)CO)C[C@@H]3O[C@H]1C[C@H](N)[C@@H](O)[C@H](C)O1` ?
0.41 (active)

Any idea what fluorescence ratio was measured for CC1CNc2c(cccc2S(=O)(=O)N[C@@H](CCCN=C(N)N)C(=O)N2CC[C@@H](C)C[C@@H]2C(=O)O)C1 (stereo partly specified) ?
0.96 (inactive)

Consider the compound `CC(=O)[C@@]1(O)CC[C@H]2[C@@H]3C[C@H](C)C4=CC(=O)CC[C@]4(C)[C@H]3CC[C@@]21C` and give its measured fluorescence ratio.
0.95 (inactive)

Please look up its fluorescence ratio: `O=C1c2c(O)cc(O)cc2O[C@H](c2ccc(O)c(O)c2)[C@@H]1O`
1.01 (inactive)

Please give the measured fluorescence ratio for this compound: CN1CCN2c3ncccc3Cc3ccccc3C2C1 (stereo unspecified)
0.93 (inactive)

* * *

Experiment: antimalarial activity against Dd2 strain (AID 2302);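 further: 0% = DMSO untreated growth and 100% = chloroquine plus artemisinin killed control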
Particulars: P. falciparum Dd2 in RBCs, LDH growth readout, 72 h; at 2 µM
Calls of active or inactive are those of the source.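 Rule for the calls: active = growth inhibition above 50% at the single 2 µM test dose, taken to imply half-maximal potency below 2 µM; inactive = the rest.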
Respond only with the outcome that fits, drawn from active, inactive

Record excerpt, results attached:
COc1cccc(C2CCN(CCCCNC(=O)c3ccc(NC(=O)c4ccc(Cl)cc4)cc3)CC2)c1
inactive
CCCCOC(=O)[C@H](CCC)NC(=O)c1ccc(NS(=O)(=O)c2ccc3nc(N)[nH]c(=O)c3c2)cc1
inactive
CCCCNCc1ccc(OCc2cccc(COc3ccc(CNCCCC)cc3I)c2)c(I)c1
inactive
CCN(CC)CCNC(=O)c1ccc(Nc2ncc([N+](=O)[O-])c(Nc3ccccc3OC)n2)cc1
active
Nc1cc2c(C3CCN(CC4CCN(C(=O)/C=C/c5ccc(Cl)c(Cl)c5)CC4)CC3)c[nH]c2cn1
active

Short answer needed: outcome of this test for `COc1ccc(-c2ccc(NC(=O)c3cccc(Cl)c3)cc2)cc1CN1CCCN(C)CC1` ?
active

What outcome does the record of this test show for `CN(C)Cc1ccc(-c2ccc3ccnc(N)c3c2)cc1` ?
active

Assay outcome for O=C(NCC1CC1)C1CCN(C(c2ccccc2)c2nc3ccccc3s2)CC1 (stereo not drawn) : what was it?
inactive

For `CCCC(=O)Nc1ccc(OCCCCN(CC(C)(C)C)c2ccc(C#N)c(C(F)(F)F)c2)cc1` , which call appears in the assay record?
active

// param item: `CSc1ccc(NC(=O)Nc2cc(C)nc3ccccc23)cc1Br` ; yields the recorded call
active

Entry `O=C(Nc1ccccc1)Nc1cccc(-c2cc(CNCCc3ccccc3)sc2-c2ccncc2)c1` : call = ?
active

* * *

Experiment: rescue of polyQ-huntingtin neuronal dysfunction in worms, whole organism, C. elegans mechanosensory neurons, N-terminal huntingtin (AID 1599)
Particulars: touch response, stronger effect = higher value
Entries with a potency or affinity are not part of this list.
Entries and their rescue above control
Please reply with the value in numeric form only.

Example molecules with recorded rescue above control:
C[C@]12CCC3c4ccc(O)cc4CCC3C1CC[C@@H]2OC(=O)CCC1CCCC1 (some centres not stated)
-0.57
C[C@]12CCC3c4ccc(O)cc4CCC3C1CC[C@@H]2O (some centres not stated)
6.83
N[C@@H]1[C@@H](O)[C@H](O)[C@@H](CO)O[C@H]1O
5.73
CC1(C)O[C@@H]2CC3C4CCC5=CC(=O)C=C[C@]5(C)[C@@]4(F)[C@@H](O)C[C@]3(C)[C@]2(C(=O)CO)O1 (some centres not stated)
-3.95
CCCCCCCCCCCCC[N+](C)(C)Cc1ccccc1
0

Form field: reported rescue above control of CO[C@@]12[C@@H]3NC3CN1C1=C(C(=O)C(N)=C(C)C1=O)[C@@H]2COC(N)=O (some centres not stated)
0

Fill in the blank: the reported rescue above control of CC(=O)OCC(=O)[C@@]1(O)[C@H](OC(C)=O)CC2C3CCC4=CC(=O)C=C[C@]4(C)[C@@]3(F)[C@@H](O)C[C@@]21C (some centres not stated) is ____.
19.5

* * *

Experiment: modifiers of HSF1 nuclear foci, imaging, Selleck Cancer Library (AID 1347162)
Particulars: human cells, at 10 µM; measured here: cell number
Listed below: cell count values for each entry.
Write the number on its own, no unit after it.

Some molecules with known cell count results, for comparison:
NC(=O)c1ccc(-c2nc(-c3ccc4c(c3)OCCO4)c(-c3ccccn3)[nH]2)cc1
7030
O=c1[nH]c(-c2ccc(C(F)(F)F)cc2)nc2c1CSCC2
7170
Cc1ccc(S(=O)(=O)/C=C/C#N)cc1
6840
C[C@H](NC(=O)Cc1cc(F)cc(F)c1)C(=O)N[C@H](C(=O)OC(C)(C)C)c1ccccc1
6880
CC(C)C[C@H](NC(=O)[C@@H](O)[C@H](N)Cc1ccccc1)C(=O)O
7080

Field: next molecule
Look at this molecule and give its reported cell count. `O=C(O)c1ccc2cc(-c3ccc(O)c(C45CC6CC(CC(C6)C4)C5)c3)ccc2c1`
6920
